Tested on: MDA-MB-435
Assay: NCI tumour cell line growth inhibition, 48 h
Calls of active or inactive are those of the source. Rule as the data show it: active = GI50 up to about 1.1 µM and inactive = higher.
// allowed return values: Y = active, N = inactive

Take a look at these entries with their results.
>>> classification("COc1cccc2c1C(=O)c1c(O)c3c(c(O)c1C2=O)C[C@@](O)(/C(C)=N/NC(=O)c1ccc(Cl)c(Cl)c1)C[C@@H]3OC1CC(N)C(O)C(C)O1 (some centres undefined)")
"Y"
>>> classification("NCCCc1c(-c2ccccc2)[nH]c(N)nc1=O")
"N"

Problem: Short answer needed: outcome of this test for CN(C)/N=N/c1nc2c(c(=O)n(C)c(=O)n2C)n1CC1CO1 (centres undefined) ?
Result: N

Problem: Short answer needed: outcome of this test for COC(=O)/C=C(/C=C1/C(C#N)=C(N)N(c2ccc(Cl)cc2)C1(C)/C(=C/C(=O)OC)C(=O)OC)C(=O)OC (centres undefined) ?
Result: N
